Experiment: Cell Viability - SH-SY5Y (AID 544);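 further: cells exposed to compound for 40 hours; nearly all actives have a fitted effect of over 55% in size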
Details: SH-SY5Y neuroblastoma cell viability
Results filed as inconclusive are left out. Active and inactive are the calls of the source. The call rests on the fitted dose curve; in most records, active means well fitted cell-killing curve with a large enough effect; inconclusive means small, poorly fitted or top-dose-only effect; inactive means flat fitted curve, though single readings scatter.
Your answer must be one of the following: YES for active, NO for inactive

Asked: Given "COc1cc(-c2ccc(N=C=O)c(OC)c2)ccc1N=C=O" , state the outcome it received in this test.
Given back: NO

Asked: Try this molecule too: "Cc1cccnc1"
Given back: NO

Asked: Try this molecule too: CCCCC(CC)COP(=O)(OCC(CC)CCCC)OCC(CC)CCCC (stereo not given)
Given back: NO

Asked: Try this molecule too: "Brc1ccc(-c2ccccc2)cc1"
Given back: NO

Asked: Try this molecule too: "c1ccc(Nc2cccc3ccccc23)cc1"
Given back: NO

Asked: Try this molecule too: "Cc1ccc(O)c(N)c1"
Given back: YES

Asked: Try this molecule too: "NC(=O)Nc1nc2ccccc2[nH]1"
Given back: NO

Asked: Try this molecule too: "Oc1ccc2c(c1)OCO2"
Given back: NO

Asked: Try this molecule too: "NC(=O)c1ccc([N+](=O)[O-])cc1"
Given back: NO

Asked: Try this molecule too: "C/C=C1/C(=O)C[C@H]2[C@@H]3CCC4=CC(=O)CC[C@]4(C)[C@H]3CC[C@]12C"
Given back: YES
